Measured values drawn from ChEMBL document CHEMBL5360603 for this set.

pIC50 by entry:
Biological target: Glutaminase kidney isoform, mitochondrial (Homo sapiens)
Sequence (O94925 whole entry): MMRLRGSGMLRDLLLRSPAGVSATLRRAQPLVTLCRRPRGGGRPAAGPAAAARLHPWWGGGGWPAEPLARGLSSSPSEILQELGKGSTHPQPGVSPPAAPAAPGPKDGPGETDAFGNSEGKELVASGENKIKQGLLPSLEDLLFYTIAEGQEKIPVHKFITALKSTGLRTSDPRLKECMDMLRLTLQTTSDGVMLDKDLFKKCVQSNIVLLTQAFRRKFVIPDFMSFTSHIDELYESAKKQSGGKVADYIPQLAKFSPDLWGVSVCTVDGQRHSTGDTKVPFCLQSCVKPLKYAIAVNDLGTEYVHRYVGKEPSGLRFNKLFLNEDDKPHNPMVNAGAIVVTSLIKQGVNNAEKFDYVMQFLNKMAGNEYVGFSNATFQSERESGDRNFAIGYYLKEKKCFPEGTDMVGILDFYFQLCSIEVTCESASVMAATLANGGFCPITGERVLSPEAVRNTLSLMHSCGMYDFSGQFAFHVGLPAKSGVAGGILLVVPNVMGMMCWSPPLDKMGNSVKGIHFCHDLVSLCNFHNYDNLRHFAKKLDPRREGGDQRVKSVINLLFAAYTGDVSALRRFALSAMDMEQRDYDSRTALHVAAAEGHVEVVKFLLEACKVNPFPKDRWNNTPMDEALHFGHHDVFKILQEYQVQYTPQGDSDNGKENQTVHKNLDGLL
Experiment: Negative allosteric modulator activity at human wildtype KGA incubated for 5 hrs in presence of GDH and NADP by EZMTT assay
pIC50: −log10 of the molar value.

Here is how some compounds turned out for pIC50.
| smiles_code | pIC50 |
| --- | --- |
| Cc1nn(CCC[Se]CCn2nc(C)c(Cl)c2C)c(C)c1Cl | < 5.00 |
| Nc1nnc(CCCCCCc2nnc(N)[se]2)[se]1 | < 5.00 |

Now examine the next entry.
Challenge: Lab note: need pIC50 with Glutaminase kidney isoform, mitochondrial (Homo sapiens) for entry "CCCCCCCC[Se][Se]CCCCCCCC" , please look it up.
Response given: < 5.00
